# measurement_target: human Chemokine like receptor 1 (Homo sapiens)
# Construct: host or cells: U2OS (Tango CMKLR1-bla U2OS)
# procedure_summary: Activation of Tango CMKLR1-bla U2OS cells (beta-lactamase FRET reporter)
# Type: cell-based
# measurement_conditions: determination by the method of Effect Embodiment 1; read-out: EC50
Square brackets hold non-standard residues; d marks the D form. Peptide text beside a SMILES is read from it. * marks the point of attachment. Pro(trans-4-Ph) = O=C(O)[C@@H]1C[C@@H](c2ccccc2)CN1; X7 = O=C([C@@H](Cc1ccc(O)cc1)NC(=S)NCCc1ccccc1)*; X10 = CN(C)[C@H](Cc1ccc(O)cc1)C(=O)*; Tic = O=C(O)[C@@H]1Cc2ccccc2CN1; NMeL = CN[C@@H](CC(C)C)C(=O)O
Measured pEC50 by item
For clarity, pEC50 is expressed as the negative log10 of concentration in mol/L.

Previously resolved entries follow.
compound	measurement_target	pEC50
CC(C)C[C@@H](C(=O)N1CCC[C@H]1C(=O)N[C@H](CO)C(=O)N[C@@H](CCC(N)=O)C(=O)N[C@@H](Cc1ccccc1)C(=O)N[C@H](C)C(=O)N1Cc2ccccc2C[C@H]1C(=O)N[C@@H](CO)C(=O)O)N(C)C(=O)[C@H](Cc1ccccc1)NC(=O)[C@@H](Cc1ccc(O)cc1)N(C)C [YW-192] (X10-F[NMeL]P[dS]QF[dA][Tic]S-OH)	human Chemokine like receptor 1 (Homo sapiens)	8.59
CC(C)C[C@H](NC(=O)[C@H](Cc1ccccc1)NC(=O)[C@H](N)Cc1ccc(O)cc1)C(=O)N1C[C@H](c2ccccc2)C[C@H]1C(=O)N[C@H](CO)C(=O)N[C@@H](CCC(N)=O)C(=O)N[C@@H](Cc1ccccc1)C(=O)N[C@H](C)C(=O)N1Cc2ccccc2C[C@H]1C(=O)N[C@@H](CO)C(=O)O [YW-113] (H-[dY]FL[Pro(trans-4-Ph)][dS]QF[dA][Tic]S-OH)	human Chemokine like receptor 1 (Homo sapiens)	8.07

Please turn your attention to the following entry.
stdin: Fill in the blank: the reported pEC50 of CC(C)C[C@H](NC(=O)[C@H](Cc1ccccc1)NC(=O)[C@@H](Cc1ccc(O)cc1)NC(=S)NCCc1ccccc1)C(=O)N1CCC[C@H]1C(=O)N[C@H](CO)C(=O)N[C@@H](CCC(N)=O)C(=O)N[C@@H](Cc1ccccc1)C(=O)N[C@H](C)C(=O)N1Cc2ccccc2C[C@H]1C(=O)N[C@@H](CO)C(=O)O [YW-73] (X7-FLP[dS]QF[dA][Tic]S-OH) is ____.
stdout: 7.55

====

Listed here are molecules together with their documented EC50.
# measurement_target: human Chemokine like receptor 1 (Homo sapiens)
# Construct: host or cells: U2OS (Tango CMKLR1-bla U2OS)
# Sequence (Q99788 1-373): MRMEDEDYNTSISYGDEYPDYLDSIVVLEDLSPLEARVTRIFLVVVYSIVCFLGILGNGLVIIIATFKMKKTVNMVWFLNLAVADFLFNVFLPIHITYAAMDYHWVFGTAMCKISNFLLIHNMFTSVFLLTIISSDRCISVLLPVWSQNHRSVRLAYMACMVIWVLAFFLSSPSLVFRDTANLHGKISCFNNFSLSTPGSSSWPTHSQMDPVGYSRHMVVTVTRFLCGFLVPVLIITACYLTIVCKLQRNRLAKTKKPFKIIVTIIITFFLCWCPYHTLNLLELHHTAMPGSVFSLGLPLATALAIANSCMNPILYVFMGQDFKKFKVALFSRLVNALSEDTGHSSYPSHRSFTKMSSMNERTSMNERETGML
# procedure_summary: Activation of Tango CMKLR1-bla U2OS cells (beta-lactamase FRET reporter)
# Format: cell-based
# measurement_conditions: determination by the method of Effect Embodiment 1; read-out: EC50
Square brackets hold non-standard residues; d marks the D form. Peptide text beside a SMILES is read from it. * marks the point of attachment. 2Nal = N[C@@H](Cc1ccc2ccccc2c1)C(=O)O; dNMeY = CN[C@H](Cc1ccc(O)cc1)C(=O)O; Butanoyl(4-Ph) = O=C(CCCc1ccccc1)*; Tic = O=C(O)[C@@H]1Cc2ccccc2CN1; NMeL = CN[C@@H](CC(C)C)C(=O)O; Thz = O=C(O)[C@@H]1CSCN1
# output: bare number, implied unit pM

molecule	readout_unit	EC50
CC(C)C[C@@H](C(=O)N1CSC[C@H]1C(=O)N[C@H](CO)C(=O)N[C@@H](CCC(N)=O)C(=O)N[C@@H](Cc1ccccc1)C(=O)N[C@H](C)C(=O)N1Cc2ccccc2C[C@H]1C(=O)N[C@@H](CO)C(=O)O)N(C)C(=O)[C@H](Cc1ccccc1)NC(=O)[C@H](N)Cc1ccc(O)cc1 [YW-121] (H-[dY]F[NMeL][Thz][dS]QF[dA][Tic]S-OH)	pM	700
CC(C)C[C@H](NC(=O)[C@H](Cc1ccccc1)NC(=O)[C@@H](Cc1ccc(O)cc1)NC(=O)CCCc1ccccc1)C(=O)N1CCC[C@H]1C(=O)N[C@H](CO)C(=O)N[C@@H](CCC(N)=O)C(=O)N[C@@H](Cc1ccccc1)C(=O)N[C@H](C)C(=O)N1Cc2ccccc2C[C@H]1C(=O)N[C@@H](CO)C(=O)O [YW-75] ({Butanoyl(4-Ph)}-[dY]FLP[dS]QF[dA][Tic]S-OH)	pM	50000

Would you kindly look at the next entry?
stdin: What does the record list as EC50 for CN[C@H](Cc1ccc(O)cc1)C(=O)N[C@@H](Cc1ccccc1)C(=O)N(C)[C@@H](CC(C)C)C(=O)N1CSC[C@H]1C(=O)N[C@H](CO)C(=O)N[C@@H](CCC(N)=O)C(=O)N[C@@H](Cc1ccc2ccccc2c1)C(=O)N[C@H](C)C(=O)N1Cc2ccccc2C[C@H]1C(=O)N[C@@H](CO)C(=O)O [YW-148] (H-[dNMeY]F[NMeL][Thz][dS]Q[2Nal][dA][Tic]S-OH) ?
stdout: 500
